# measurement notes: in vitro
# Format: cell-based
# test parameters: human, HepG2 or HepG2.117 cells, ATPlite, 3-days incubation (not marked with *), mean value
assay endpoint: CC50 at 3 days

QUERY: Give recorded CC50 at 3 days. CNC(=O)c1ccc(-n2c(N[C@@H]3CCOc4cc(OC)ccc43)nc3c(c2=O)C[C@@H](C)N(C(=O)c2ccc(Cl)c(Cl)c2)C3)cc1 (single isomer, unassigned) [Compound C527a]
RESULT: > 50 µM

QUERY: Provide only the value of recorded CC50 at 3 days for CNc1noc2cc(-n3c(NC(C)C)nc4c(c3=O)C[C@@H](C)N(C(=O)c3ccc(Cl)c(Cl)c3)C4)c(C)cc12
RESULT: > 50 µM

QUERY: Given the molecule CNC(=O)c1ccc(-n2c(N[C@@H](C)c3ccc(F)c(F)c3)nc3c(c2=O)C[C@@H](C)N(C(=O)c2ccc(Cl)c(Cl)c2)C3)cc1 (single isomer, unassigned) [Compound C417b] , write its reported CC50 at 3 days.
RESULT: 7.3 µM

QUERY: Give a short answer stating reported CC50 at 3 days for CNC(=O)c1ccc(-n2c(NC(C)C)nc3c(c2=O)C[C@@H](C)N(C(=O)c2ccc(Cl)c(C(F)(F)F)c2)C3)cc1Cl .
RESULT: > 50 µM

QUERY: For the molecule CNC(=O)c1ccc(-n2c(NC(C)C)nc3c(c2=O)C[C@@H](C)N(C(=O)c2ccc(C)c(Cl)c2)C3)cc1 , give its reported CC50 at 3 days.
RESULT: > 50 µM

QUERY: Complete the entry with CC50 at 3 days for CNC(=O)c1ccc(-n2c(NCc3cccc(-n4cncn4)c3)nc3c(c2=O)C[C@@H](C)N(C(=O)c2ccc(Cl)c(Cl)c2)C3)cc1
RESULT: > 50 µM

QUERY: Given CNC(=O)c1ccc(-n2c(N3C[C@@H](C#N)[C@H](c4ccccc4)C3)nc3c(c2=O)C[C@@H](C)N(C(=O)c2ccc(Cl)c(Cl)c2)C3)cc1 , respond with its CC50 at 3 days.
RESULT: > 50 µM

QUERY: Report CC50 at 3 days, nothing else, for this molecule: CC(C)Nc1nc2c(c(=O)n1-c1ccc(-n3ccnn3)cc1)C[C@@H](C)N(C(=O)c1ccc(Cl)c(Cl)c1)C2
RESULT: > 50 µM

QUERY: Give the reported value of CC50 at 3 days for this record: CNC(=O)c1ccc(-n2c(NC(C)C)nc3c(c2=O)C[C@@H](C)N(C(=O)c2ccc(F)c(C#N)c2)C3)cc1
RESULT: > 50 µM

QUERY: Give CC50 at 3 days for CNC(=O)c1ccc(-n2c(NC(C)C)nc3c(c2=O)C[C@@H](C)N(C(=O)c2cc(C)c(F)c(C)c2)C3)cc1
RESULT: > 50 µM

QUERY: # return recorded CC50 at 3 days for input CNC(=O)c1ccc(-n2c(N[C@@H](C)c3ccc(C(F)(F)F)cc3)nc3c(c2=O)C[C@@H](C)N(C(=O)c2ccc(Cl)c(Cl)c2)C3)cc1 (single isomer, unassigned) [Compound C413b]
RESULT: 8.3 µM

QUERY: Return CC50 at 3 days (reported value) for this molecule: CNC(=O)c1ccc(-n2c(NC(C)C)nc3c(c2=O)C[C@@H](C)N(C(=O)c2ccc(C)cc2)C3)cc1
RESULT: > 50 µM

###

# measurement notes: in vitro
# Format: cell-based
# test parameters: human, HepG2 or HepG2.117 cells, ATPlite, 3-days incubation (not marked with *), mean value
# Protocol: Cytotoxicity of the compounds was tested using HepG2 or HepG2.117 cells, incubated for 3 or 4 days in the presence of compounds. The viability of the cells was assessed using the PERKIN ELMER ATPlite Luminescence Assay System.”
assay endpoint: CC50 at 3 days

QUERY: Assign CC50 at 3 days to the following record: CNC(=O)c1ccc(-n2c(N[C@@H]3CCC34CCC4)nc3c(c2=O)C[C@@H](C)N(C(=O)c2ccc(Cl)c(Cl)c2)C3)cc1 (single isomer, unassigned) [Compound C346a]
RESULT: 27.6 µM

QUERY: Report measured CC50 at 3 days; entry is CNC(=O)c1ccc(-n2c(N[C@@H](C)C3CC3)nc3c(c2=O)C[C@@H](C)N(C(=O)c2ccc(Cl)c(Cl)c2)C3)c(Cl)c1 (single isomer, unassigned) [Compound C387a]
RESULT: > 50 µM

QUERY: Specify reported CC50 at 3 days for the molecule shown: CNC(=O)c1ccc(-n2c(NCc3n[nH]c(=O)[nH]3)nc3c(c2=O)C[C@@H](C)N(C(=O)c2ccc(Cl)c(Cl)c2)C3)cc1 [Compound C600]
RESULT: > 50 µM

QUERY: Note CC50 at 3 days for the molecule shown: CNC(=O)c1ccc(-n2c(NC(C)C)nc3c(c2=O)C[C@@H](C)N(C(=O)c2ccc4[nH]c(=O)n(C)c4c2)C3)cc1 [Compound C509]
RESULT: > 50 µM

QUERY: Retrieve CC50 at 3 days measured for CNC(=O)c1ccc(-n2c(NC(C)C)nc3c(c2=O)C[C@@H](C)N(C(=O)c2ccc(Cl)c(C(F)F)c2)C3)c(Cl)c1 (single isomer, unassigned) [Compound C685a] and print it.
RESULT: > 50 µM

QUERY: For the molecule CNC(=O)c1ccc(-n2c(NCC3CC3C)nc3c(c2=O)C[C@@H](C)N(C(=O)c2ccc(Cl)c(Cl)c2)C3)cc1 (some centres unmarked) [Compound C547] , give its reported CC50 at 3 days.
RESULT: 47.2 µM

QUERY: State its CC50 at 3 days: CNC(=O)c1ccc(-n2c(NCc3nc(-c4ccccc4)n[nH]3)nc3c(c2=O)C[C@@H](C)N(C(=O)c2ccc(Cl)c(Cl)c2)C3)cc1 [Compound C486]
RESULT: > 50 µM

QUERY: Query CC50 at 3 days for CNC(=O)c1ccc(-n2c(N[C@H](C)c3ccc4[nH]cnc4c3)nc3c(c2=O)C[C@@H](C)N(C(=O)c2ccc(Cl)c(Cl)c2)C3)cc1 (single isomer, unassigned) [Compound C647a]
RESULT: > 50 µM

QUERY: Dear colleague, please send me the reported CC50 at 3 days for CNC(=O)c1ccc(-n2c(NC(C)C)nc3c(c2=O)C[C@@H](C)N(C(=O)c2cc4c(C)cc(OC)cc4[nH]2)C3)cc1 [Compound C567] when you can.
RESULT: 36.5 µM

QUERY: Recall and state the measured CC50 at 3 days for CNC(=O)c1ccc(-n2c(N[C@@H](C)c3ccc4[nH]ccc4c3)nc3c(c2=O)C[C@@H](C)N(C(=O)c2ccc(Cl)c(Cl)c2)C3)cc1 (single isomer, unassigned) [Compound C449b] .
RESULT: 46.4 µM

QUERY: Return CC50 at 3 days (reported value) for this molecule: CNC(=O)c1ccc(-n2c(N[C@@H](C)c3ccc(OC)cc3)nc3c(c2=O)C[C@@H](C)N(C(=O)c2ccc(Cl)c(Cl)c2)C3)cc1 (single isomer, unassigned) [Compound C347b]
RESULT: > 50 µM

###

# measurement notes: in vitro
# Format: cell-based
# test parameters: human, HepG2 or HepG2.117 cells, 3-days incubation (unmarked values), ATPlite; mean value
assay endpoint: CC50 at 3 days

QUERY: Identify CC50 at 3 days associated with the compound CNC(=O)c1ccc(-n2c(OC(C)C)nc3c(c2=O)C[C@@H](C)N(C(=O)c2ccc(Cl)c(Cl)c2)C3)cc1
RESULT: > 50 µM

QUERY: Quote CC50 at 3 days reported for COc1ccc(CNc2nc3c(c(=O)n2-c2ccn[nH]2)CCN(C(=O)c2ccc(Cl)c(Cl)c2)C3)cc1 please.
RESULT: 22.6 µM

QUERY: Specify measured CC50 at 3 days for CNC(=O)c1cc(-n2c(NC(C)C)nc3c(c2=O)C[C@@H](C)N(C(=O)c2ccc(Cl)c(Cl)c2)C3)n(C)n1 .
RESULT: > 50 µM

QUERY: Using known records, supply CC50 at 3 days for COc1ccc(CNc2nc3c(c(=O)n2-c2ccc(S(C)(=O)=O)cc2)C[C@H](C)N(C(=O)c2ccc(Cl)c(Cl)c2)C3)cc1
RESULT: > 50 µM

QUERY: Retrieve CC50 at 3 days measured for COc1ccc(CNc2nc3c(c(=O)[nH]2)CCN(C(=O)c2ccc(Br)cc2)C3)cc1 and print it.
RESULT: 27.4 µM

QUERY: Provide one value: measured CC50 at 3 days of CNC(=O)c1ccc(-n2c(NC(C)C)nc3c(c2=O)C[C@@H](C)N(C(=O)c2ccc(Cl)c(Cl)c2)C3)c(C)c1 [Compound C300a]
RESULT: > 50 µM

QUERY: Output measured CC50 at 3 days for this item: CNC(=O)c1ccc(-n2c(NCc3ccc(OC)cc3)nc3c(c2=O)CCN(C(=O)c2ccc(Cl)c(Cl)c2)C3)cc1F
RESULT: > 50 µM

QUERY: Name the recorded CC50 at 3 days of the compound listed here: COc1ccccc1-n1c(N[C@@H](C)c2ccccc2)nc2c(c1=O)CCN(C(=O)c1ccc(Cl)c(Cl)c1)C2
RESULT: 33.2 µM

QUERY: Indicate its recorded CC50 at 3 days; the compound in question is CC(C)Nc1nc2c(c(=O)n1-c1ccc(S(C)(=O)=O)cc1)C[C@H](C)N(C(=O)c1ccc(Cl)c(Cl)c1)C2 [Compound C100B]
RESULT: > 50 µM

QUERY: Assign CC50 at 3 days to the following record: COc1ccc(CNc2nc3c(c(=O)[nH]2)CCN(C(=O)c2ccc(I)cc2)C3)cc1
RESULT: 43.5 µM

QUERY: # return recorded CC50 at 3 days for input COc1ccc(CNc2nc3c(c(=O)n2-c2ccc(F)c(C#N)c2)CCN(C(=O)c2ccc(Cl)c(Cl)c2)C3)cc1
RESULT: > 50 µM

QUERY: Give the reported CC50 at 3 days for this compound. CC(C)NC(=O)c1ccc(-n2c(NC(C)C)nc3c(c2=O)C[C@@H](C)N(C(=O)c2ccc(Cl)c(Cl)c2)C3)cn1
RESULT: > 50 µM

QUERY: Give reported CC50 at 3 days value for CNC(=O)c1cccc(-n2c(NC(C)C)nc3c(c2=O)C[C@@H](C)N(C(=O)c2ccc(Cl)c(Cl)c2)C3)c1
RESULT: > 50 µM

QUERY: Kindly indicate its recorded CC50 at 3 days. Item: CCOC(=O)c1ccc(-n2c(NC(C)C)nc3c(c2=O)C[C@@H](C)N(C(=O)c2ccc(Cl)c(Cl)c2)C3)cc1
RESULT: > 50 µM
